Biological target: Man(a1-3)[Man(a1-6)]Man(a1-6)[Man(a1-3)]Man(b1-4)GlcNAc(b1-4)GlcNAc
Assay: glycan array binding signal (z-score within array); higher = stronger binding
Conditions: glycan notation: IUPAC condensed, linker removed
Many of the other results were omitted from the sample, so the strongest signals are more common in it than they were.
quantity_name: glycan array binding signal (z-score)

binder | measured_result
OrysaEULS2 (Oryza sativa) (protein) MVYCRANPNYAMTARNGAVVLAPANPKDEYQHWIKDMRWSTSIKDEEGYPAFALVNKATGQAIKHSLGQSHPVRLVPYNPEVMDESVLWTESRDVGNGFRCIRMVNNIYLNFDAFHGDKYHGGVRDGTDIVLWKWCEGDNQRWKIQPYYILEQKLISEEDLNSAVDHHHHHH | 4.45
Nictaba (Nicotiana tabacum), Q94EW1 (protein) MQGQWIAARDLSITWVDNPQYWTWKTVDPNIEVAELRRVAWLDIYGKIETKNLIRKTSYAVYLVFKLTDNPRELERATASLRFVNEVAEGAGIEGTTVFISKKKKLPGELGRFPHLRSDGWLEIKLGEFFNNLGEDGEVEMRLMEINDKTWKSGIIVKGFDIRPN | 4.21
Intelectin 1 (Homo sapiens), Q8WWA0 (protein) MNQLSFLLFLIATTRGWSTDEANTYFKEWTCSSSPSLPRSCKEIKDECPSAFDGLYFLRTENGVIYQTFCDMTSGGGGWTLVASVHENDMRGKCTVGDRWSSQQGSKAVYPEGDGNWANYNTFGSAEAATSDDYKNPGYYDIQAKDLGIWHVPNKSPMQHWRNSSLLRYRTDTGFLQTLGHNLFGIYQKYPVKYGEGKCWTDNGPVIPVVYDFGDAQKTASYYSPYGQREFTAGFVQFRVFNNERAANALCAGMRVTGCNTEHHCIGGGGYFPEASPQQCGDFSGFDWSGYGTHVGYSSSREITEAAVLLFYR | -0.432

Where these numbers come from: the supplement of paper PMC8728848
